# TEST METHOD NOTES: molar heat capacity at constant pressure
# MEASUREMENT CONTEXT: 258.15 K; 101.33 kPa; Crystal; Small sample (50 mg) DSC
READOUT TYPE: molar heat capacity at constant pressure (J/K/mol)

Record OC[C@@H](O)C(O)[C@H](O)CO [D-arabitol] , field molar heat capacity at constant pressure: 172.95

Record O[C@H]1[C@H](O)[C@@H](O)[C@H](O)[C@@H](O)[C@H]1O [cis-1,2,3,5-trans-4,6-cyclohexanehexol] , field molar heat capacity at constant pressure: 187.25

Record OC[C@H](O)C(O)[C@@H](O)CO [L-(-)-arabitol] , field molar heat capacity at constant pressure: 178.4

Record OC[C@@H](O)[C@@H](O)[C@H](O)[C@H](O)CO [D-mannitol] , field molar heat capacity at constant pressure: 200.87

Record OC[C@@H](O)[C@@H](O)CO [meso-1,2,3,4-butanetetrol] , field molar heat capacity at constant pressure: 143.2

Record OC[C@@H](O)[C@H](O)[C@@H](O)CO [xylitol] , field molar heat capacity at constant pressure: 180.68

* * *

# MEASUREMENT CONTEXT: 200 K; 101.33 kPa; Crystal; relaxation calorimetry
READOUT TYPE: molar entropy (J/K/mol)

Record OC[C@H](O)C(O)[C@@H](O)CO [L-(-)-arabitol] , field molar entropy: 133.58

Record "OC[C@@H](O)C(O)[C@H](O)CO" , field molar entropy: 132.48

Record "OC[C@@H](O)[C@@H](O)CO" , field molar entropy: 110.22

Record "OC[C@@H](O)[C@H](O)[C@@H](O)CO" , field molar entropy: 129.55

Record "OC[C@@H](O)[C@@H](O)[C@H](O)[C@H](O)CO" , field molar entropy: 150.14

Record O[C@H]1[C@H](O)[C@@H](O)[C@H](O)[C@@H](O)[C@H]1O [cis-1,2,3,5-trans-4,6-cyclohexanehexol] , field molar entropy: 126.62

* * *

# TEST METHOD NOTES: molar heat capacity at constant pressure
# MEASUREMENT CONTEXT: 30 K; 101.33 kPa; Crystal; relaxation calorimetry
READOUT TYPE: molar heat capacity at constant pressure (J/K/mol)

Record O[C@H]1[C@H](O)[C@@H](O)[C@H](O)[C@@H](O)[C@H]1O [cis-1,2,3,5-trans-4,6-cyclohexanehexol] , field molar heat capacity at constant pressure: 15.9

Record "OC[C@@H](O)[C@H](O)[C@@H](O)CO" , field molar heat capacity at constant pressure: 14.71

Record "OC[C@@H](O)C(O)[C@H](O)CO" , field molar heat capacity at constant pressure: 16.29

Record OC[C@H](O)C(O)[C@@H](O)CO [L-(-)-arabitol] , field molar heat capacity at constant pressure: 16.48

Record "OC[C@@H](O)[C@@H](O)[C@H](O)[C@H](O)CO" , field molar heat capacity at constant pressure: 18.66

Record "OC[C@@H](O)[C@@H](O)CO" , field molar heat capacity at constant pressure: 14.7

* * *

# TEST METHOD NOTES: molar heat capacity at constant pressure
# MEASUREMENT CONTEXT: 341.15 K; 101.33 kPa; Crystal; Small sample (50 mg) DSC
READOUT TYPE: molar heat capacity at constant pressure (J/K/mol)

Record OC[C@@H](O)[C@@H](O)CO [meso-1,2,3,4-butanetetrol] , field molar heat capacity at constant pressure: 190.43

Record O[C@H]1[C@H](O)[C@@H](O)[C@H](O)[C@@H](O)[C@H]1O [cis-1,2,3,5-trans-4,6-cyclohexanehexol] , field molar heat capacity at constant pressure: 255.37

Record OC[C@@H](O)[C@@H](O)[C@H](O)[C@H](O)CO [D-mannitol] , field molar heat capacity at constant pressure: 268.11

Record OC[C@@H](O)C(O)[C@H](O)CO [D-arabitol] , field molar heat capacity at constant pressure: 242.17

Record OC[C@@H](O)[C@H](O)[C@@H](O)CO [xylitol] , field molar heat capacity at constant pressure: 245.84

* * *

# MEASUREMENT CONTEXT: 45 K; 101.33 kPa; Crystal; relaxation calorimetry
READOUT TYPE: molar entropy (J/K/mol)

Record "OC[C@@H](O)[C@@H](O)CO" , field molar entropy: 14.94

Record OC[C@H](O)C(O)[C@@H](O)CO [L-(-)-arabitol] , field molar entropy: 16.61

Record O[C@H]1[C@H](O)[C@@H](O)[C@H](O)[C@@H](O)[C@H]1O [cis-1,2,3,5-trans-4,6-cyclohexanehexol] , field molar entropy: 16.84

Record "OC[C@@H](O)[C@@H](O)[C@H](O)[C@H](O)CO" , field molar entropy: 18.76

Record "OC[C@@H](O)[C@H](O)[C@@H](O)CO" , field molar entropy: 15.19

Record "OC[C@@H](O)C(O)[C@H](O)CO" , field molar entropy: 16.41

* * *

# MEASUREMENT CONTEXT: 2 K; 101.33 kPa; Crystal; relaxation calorimetry
READOUT TYPE: molar entropy (J/K/mol)

// worked examples, molar entropy included
Record "OC[C@@H](O)[C@@H](O)[C@H](O)[C@H](O)CO" , field molar entropy: 0.002978

Record "OC[C@@H](O)[C@@H](O)CO" , field molar entropy: 0.002515

Record "OC[C@@H](O)C(O)[C@H](O)CO" , field molar entropy: 0.002268

Record OC[C@H](O)C(O)[C@@H](O)CO [L-(-)-arabitol] , field molar entropy: 0.002213

[P] O[C@H]1[C@H](O)[C@@H](O)[C@H](O)[C@@H](O)[C@H]1O [cis-1,2,3,5-trans-4,6-cyclohexanehexol]
[Q] OC[C@@H](O)[C@H](O)[C@@H](O)CO
Which of these two has the smaller recorded molar entropy: P or Q ? Your answer should be the label attached to the chosen record. Q

* * *

# TEST METHOD NOTES: molar heat capacity at constant pressure
# MEASUREMENT CONTEXT: 100 K; 101.33 kPa; Crystal; relaxation calorimetry
READOUT TYPE: molar heat capacity at constant pressure (J/K/mol)

Record "OC[C@@H](O)[C@H](O)[C@@H](O)CO" , field molar heat capacity at constant pressure: 76.57

Record "OC[C@@H](O)[C@@H](O)CO" , field molar heat capacity at constant pressure: 63.64

Record "OC[C@@H](O)C(O)[C@H](O)CO" , field molar heat capacity at constant pressure: 77.87

Record "OC[C@@H](O)[C@@H](O)[C@H](O)[C@H](O)CO" , field molar heat capacity at constant pressure: 87.87

Record O[C@H]1[C@H](O)[C@@H](O)[C@H](O)[C@@H](O)[C@H]1O [cis-1,2,3,5-trans-4,6-cyclohexanehexol] , field molar heat capacity at constant pressure: 71.28

Record OC[C@H](O)C(O)[C@@H](O)CO [L-(-)-arabitol] , field molar heat capacity at constant pressure: 78.28

* * *

# TEST METHOD NOTES: molar heat capacity at constant pressure
# MEASUREMENT CONTEXT: 346.15 K; 101.33 kPa; Crystal; Small sample (50 mg) DSC
READOUT TYPE: molar heat capacity at constant pressure (J/K/mol)

Record O[C@H]1[C@H](O)[C@@H](O)[C@H](O)[C@@H](O)[C@H]1O [cis-1,2,3,5-trans-4,6-cyclohexanehexol] , field molar heat capacity at constant pressure: 259.66

Record OC[C@@H](O)[C@@H](O)[C@H](O)[C@H](O)CO [D-mannitol] , field molar heat capacity at constant pressure: 272.93

Record OC[C@@H](O)C(O)[C@H](O)CO [D-arabitol] , field molar heat capacity at constant pressure: 248.94

Record OC[C@@H](O)[C@@H](O)CO [meso-1,2,3,4-butanetetrol] , field molar heat capacity at constant pressure: 193.32

* * *

# TEST METHOD NOTES: molar heat capacity at constant pressure
# MEASUREMENT CONTEXT: 304.15 K; 101.33 kPa; Crystal; Small sample (50 mg) DSC
READOUT TYPE: molar heat capacity at constant pressure (J/K/mol)

Record "OC[C@@H](O)[C@@H](O)CO" , field molar heat capacity at constant pressure: 168.28

Record "OC[C@@H](O)[C@@H](O)[C@H](O)[C@H](O)CO" , field molar heat capacity at constant pressure: 235.1

Record "OC[C@@H](O)C(O)[C@H](O)CO" , field molar heat capacity at constant pressure: 205.64

Record "OC[C@@H](O)[C@H](O)[C@@H](O)CO" , field molar heat capacity at constant pressure: 214.26

Record OC[C@H](O)C(O)[C@@H](O)CO [L-(-)-arabitol] , field molar heat capacity at constant pressure: 211.4

Record O[C@H]1[C@H](O)[C@@H](O)[C@H](O)[C@@H](O)[C@H]1O [cis-1,2,3,5-trans-4,6-cyclohexanehexol] , field molar heat capacity at constant pressure: 222.56
